Numbers sourced from ChEMBL document CHEMBL5606460.

- Assayed target: Genome polyprotein (dengue virus type 2) (UniProt P29990)
- Experimental context: Thailand/16681/1984, Concentration 25.0 uM, Number of replicates 1.0
Listed next: entries and their corresponding inhibition.

Here is how some compounds turned out for inhibition.
{"columns": ["Molecular string", "Endpoint", "Measured result"],
 "data": [
  ["O=Cc1ccc(N2CCCCCC2)cc1", "inhibition", "32.8%"],
  ["Cc1c(C=O)c2ccccn2c1C#N", "inhibition", "30.7%"],
  ["Nc1ccc2ccc(B(O)O)cc2c1", "inhibition", "15.2%"],
  ["O=Cc1nc(-c2ccccc2Cl)n2ccccc12", "inhibition", "20.2%"],
  ["Cc1nc(C=O)c2ccccn12", "inhibition", "33.3%"],
  ["O=Cc1ccc(N2CCCCC2)cc1", "inhibition", "37.1%"]
]}

compound CN(C)c1ccc(C=C(C#N)C(N)=O)cc1 , inhibition observed: 20.8%

compound Cc1cc(NS(=O)(=O)c2ccc(S(=O)(=O)F)cc2)c[nH]c1=O , inhibition observed: 19.6%

---

- Assayed target: UniProtKB P29990
- Experimental context: Thailand/16681/1984, Concentration 150.0 uM, Number of replicates 1.0
Endpoint: inhibition (%)
Form entry: value (%) — number only.

{"columns": ["Molecular string", "inhibition, %"],
 "data": [
  ["O=C(O)c1c(Br)sc2nnsc12", -5.55],
  ["Cc1nnc(CSc2ncnc3sccc23)o1", 40.5],
  ["O=c1ccn(Cc2cc(=O)n3ccccc3n2)c2ccsc12", -8.57],
  ["COCc1nn(CC#Cc2ccc(Cl)cc2)c(=O)o1", -4.23]
]}

Lab note: compound Brc1cccc2cn(Cc3ncccn3)nc12 tested on UniProtKB P29990; recorded inhibition was -8.46

Lab note: compound O=c1oc2cccnc2n1CC=Cc1ccccc1 tested on UniProtKB P29990; recorded inhibition was -5.05

Lab note: compound c1ccc(C2CCN(Cc3ccc4nccnc4c3)CC2)nc1 tested on UniProtKB P29990; recorded inhibition was -6.13

---

- Assayed target: Genome polyprotein (dengue virus type 2)
- Experimental context: Thailand/16681/1984, Concentration 150.0 uM, Number of replicates 1.0
Listed next: entries and their corresponding inhibition.
Form entry: value (%) — number only.

Here is how some compounds turned out for inhibition.
{"columns": ["Molecular string", "Readout unit", "inhibition"],
 "data": [
  ["O=c1c2cccn2cnn1Cc1cnc(Cl)s1", "%", -0.072],
  ["O=C(NCc1nccs1)c1sccc1Cl", "%", -3.58],
  ["c1csc(-c2nnc(Sc3ncnc4sccc34)o2)c1", "%", 1.07],
  ["Cc1nnsc1Cn1ccc(Br)n1", "%", -3.97],
  ["c1ccc2nc(SCc3cn4ccccc4n3)cnc2c1", "%", 7.18]
]}

compound Cn1c(Sc2nc3ccccc3o2)nc2sccc2c1=O , inhibition observed: -7.45

compound Brc1nc(Br)n(Cc2cscn2)n1 , inhibition observed: -9.57

---

Listed next: entries and their corresponding inhibition.
- Assayed target: Genome polyprotein (dengue virus type 2)
- Experimental context: Thailand/16681/1984, Concentration 200.0 uM, Number of replicates 1.0
Form entry: value (%) — number only.

Here is how some compounds turned out for inhibition.
{"columns": ["Molecular string", "inhibition, %"],
 "data": [
  ["O=c1[nH]c(CSc2ccccc2Cl)nc2ccsc12", 26],
  ["Cn1ncnc1Sc1nc(C2CCCC2)ns1", 3.96],
  ["O=c1c2ccccc2ncn1CCCn1cnc2ccccc2c1=O", 1.74],
  ["O=S1(=O)CCN(CC#Cc2ccc3sncc3c2)CC1", 2.54],
  ["O=c1ccc(-n2cncn2)nn1CC=Cc1ccccc1", -8.49]
]}

compound CCSc1nnc(SCCn2nc3ccccn3c2=O)s1 , inhibition observed: 2.68

compound O=C(O)c1sc2cccnc2c1Br , inhibition observed: 2.09
